# measurement target: hERG (KCNH2) (Homo sapiens, UniProt Q12809)
# Sequence (Q12809 whole entry): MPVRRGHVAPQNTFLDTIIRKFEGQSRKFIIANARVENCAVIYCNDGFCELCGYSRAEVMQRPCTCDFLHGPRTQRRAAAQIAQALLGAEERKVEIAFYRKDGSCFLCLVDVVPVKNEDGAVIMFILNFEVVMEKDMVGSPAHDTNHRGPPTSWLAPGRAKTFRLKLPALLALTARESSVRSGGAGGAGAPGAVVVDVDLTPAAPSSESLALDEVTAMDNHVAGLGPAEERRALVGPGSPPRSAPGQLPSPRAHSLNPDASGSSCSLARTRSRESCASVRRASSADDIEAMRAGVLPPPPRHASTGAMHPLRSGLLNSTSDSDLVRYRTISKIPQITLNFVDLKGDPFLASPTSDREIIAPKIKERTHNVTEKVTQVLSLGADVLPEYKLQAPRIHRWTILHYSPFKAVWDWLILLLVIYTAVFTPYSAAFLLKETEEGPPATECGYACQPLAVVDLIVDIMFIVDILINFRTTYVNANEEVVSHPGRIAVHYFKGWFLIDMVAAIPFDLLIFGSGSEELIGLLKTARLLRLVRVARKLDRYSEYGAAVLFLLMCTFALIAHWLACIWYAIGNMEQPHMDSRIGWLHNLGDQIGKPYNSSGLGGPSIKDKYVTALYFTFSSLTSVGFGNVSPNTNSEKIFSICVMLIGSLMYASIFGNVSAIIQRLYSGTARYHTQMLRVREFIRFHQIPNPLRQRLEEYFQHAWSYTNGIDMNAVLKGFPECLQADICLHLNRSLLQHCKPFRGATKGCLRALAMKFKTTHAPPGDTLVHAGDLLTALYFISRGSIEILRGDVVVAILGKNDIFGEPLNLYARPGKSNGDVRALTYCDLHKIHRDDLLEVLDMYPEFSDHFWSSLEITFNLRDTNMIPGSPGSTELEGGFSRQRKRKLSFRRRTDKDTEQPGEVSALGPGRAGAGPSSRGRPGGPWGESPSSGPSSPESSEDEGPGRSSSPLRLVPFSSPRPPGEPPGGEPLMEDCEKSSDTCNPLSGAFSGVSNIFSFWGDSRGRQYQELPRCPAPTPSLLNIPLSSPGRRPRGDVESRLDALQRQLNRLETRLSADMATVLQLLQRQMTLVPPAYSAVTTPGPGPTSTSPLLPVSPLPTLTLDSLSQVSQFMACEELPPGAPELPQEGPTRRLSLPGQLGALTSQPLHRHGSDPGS
# assay details: Inhibition of recombinant human ERG expressed in HEK293 cells assessed as inhibition of peak tail current at 1 uM by patch clamp assay relative to control
# Assay type: cell-based
# conditions: HEK293 cells expressing recombinant human ERG
readout: inhibition at 1 µM
Put your answer as a value accompanied by its unit after it.

Requested read-out inhibition at 1 µM, target or system hERG (KCNH2) (Homo sapiens, UniProt Q12809), entry "O[C@H](CN[C@@](Cc1ccccc1)(c1cc(F)cc(OC(F)(F)C(F)F)c1)c1ccc(Cl)cn1)C(F)(F)F"
43%

====

# assay details: Plasma concentration in dual transgenic mouse expressing human CETP/ApoB-100 at 30 mg/kg, po measured at 2 hrs post dose
# Format: ADME, organism-based
This section presents compounds with their documented concentration at 2 h values.
Only the number, expressed in µM, is required.

What value of concentration at 2 h has been reported for the following compound? OC(CN[C@@](Cc1ccccc1)(c1cc(F)cc(OC(F)(F)C(F)F)c1)c1ccc(Cl)cn1)CC(F)(F)F (some centres not stated)
5.4

Now for another entry.
Look up concentration at 2 h: "O[C@H](CN[C@@](Cc1ccccc1)(c1cc(F)cc(OC(F)(F)C(F)F)c1)c1ccc(Cl)cn1)C(F)(F)F"
5.2

====

# measurement target: Cholesteryl ester transfer protein (Homo sapiens, UniProt P11597)
# Sequence (P11597 whole entry): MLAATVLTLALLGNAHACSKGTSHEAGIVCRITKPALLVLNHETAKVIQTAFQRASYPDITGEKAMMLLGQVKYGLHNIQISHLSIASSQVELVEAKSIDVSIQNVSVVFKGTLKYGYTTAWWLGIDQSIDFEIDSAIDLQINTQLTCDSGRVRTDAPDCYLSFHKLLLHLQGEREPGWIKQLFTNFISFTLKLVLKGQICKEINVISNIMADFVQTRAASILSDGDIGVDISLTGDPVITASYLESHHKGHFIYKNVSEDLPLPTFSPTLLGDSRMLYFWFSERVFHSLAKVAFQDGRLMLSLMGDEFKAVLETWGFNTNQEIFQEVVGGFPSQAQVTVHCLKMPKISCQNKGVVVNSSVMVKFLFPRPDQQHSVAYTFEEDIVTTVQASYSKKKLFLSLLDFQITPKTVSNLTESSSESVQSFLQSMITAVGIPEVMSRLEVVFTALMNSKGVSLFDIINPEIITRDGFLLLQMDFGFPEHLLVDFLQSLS
# assay details: Inhibition of CETP in human whole plasma assessed as reduction in [3H]cholesteryl ester transfer from [3H]CE-HDL to LDL/VLDL
# Assay type: cell-free
readout: IC50 (nM)
Value expressed in nM; do not type the unit.

GET /values?readout=IC50&item= "CC(=O)O[C@H](CN[C@@](Cc1ccccc1)(c1cc(F)cc(C(F)(F)F)c1)c1ccc(Cl)cn1)C(F)(F)F"
100000

# get_value(readout='IC50', item= "CC(C)Oc1cc([C@@](Cc2ccccc2)(NC[C@@H](O)CC(F)(F)F)c2cc(F)cc(OC(F)(F)C(F)F)c2)ccc1F" )
169

Which value of IC50 has been reported for "CC(C)Oc1cc([C@@](Cc2ccccc2)(NC[C@H](O)C(F)(F)F)c2cc(F)cc(OC(F)(F)C(F)F)c2)ccc1F" in the records?
238

GET /values?readout=IC50&item= "C[C@H](O)CN[C@@](Cc1ccccc1)(c1cc(F)cc(C(F)(F)F)c1)c1ccc(Cl)cn1"
20000

Suppose we examine the molecule "O=C(CN[C@@](Cc1ccccc1)(c1cc(F)cc(C(F)(F)F)c1)c1ccc(Cl)cn1)CC(F)(F)F" ; what IC50 value has been reported?
30000

Next:
Param item = "CO[C@H](CN[C@@](Cc1ccccc1)(c1cc(F)cc(C(F)(F)F)c1)c1ccc(Cl)cn1)C(F)(F)F" ; retrieve measured IC50.
48000

What value of IC50 has been recorded for this entry: OC(CN[C@@](Cc1ccccc1)(c1cc(F)cc(C(F)(F)F)c1)c1ccc(Cl)cn1)CC(F)(F)F (some centres undefined)
1200

Returns the measured IC50 for the input molecule. Input: "O[C@H](CN[C@@](Cc1ccccc1)(c1cc(F)cc(C(F)(F)F)c1)c1ccc(Cl)cn1)C(F)(F)F"
1600

IC50 for OC(CN[C@@](Cc1ccccc1)(c1cc(F)cc(OC(F)(F)C(F)F)c1)c1ccc(Cl)cn1)CC(F)(F)F (some centres undefined) ?
600
